Tested on: Arthrobacter 2 (Arthrobacter humicola)
Test: relative growth (AUC of 72 h growth curve relative to DMSO control, dAUC) (ratio); higher = more growth (less inhibition), active = hit call of the paper
Settings: 20 µM
Decide using relative growth: a value greater than or equal to 1 is 1 (yes), a smaller one is 0 (no).

molecule: COc1ncc(F)c2nc(S(=O)(=O)Nc3c(F)cccc3F)nn12
target entity: Arthrobacter 2 (Arthrobacter humicola)
class name: 1 (yes)
--
molecule: CCOC(=O)OC1=C(c2cc(C)ccc2C)C(=O)N[C@]12CC[C@@H](OC)CC2
target entity: Arthrobacter 2 (Arthrobacter humicola)
class name: 1 (yes)
--
molecule: CC(C1CC1)C(O)(Cn1cncn1)c1ccc(Cl)cc1 (stereo not given)
target entity: Arthrobacter 2 (Arthrobacter humicola)
class name: 0 (no)
--
molecule: O=C(NC(=O)c1c(F)cccc1F)Nc1ccc(OC(F)(F)C(F)OC(F)(F)F)c(Cl)c1 (stereo not given)
target entity: Arthrobacter 2 (Arthrobacter humicola)
class name: 0 (no)
--
molecule: N#CC(CCc1ccc(Cl)cc1)(Cn1cncn1)c1ccccc1 (stereo not given)
target entity: Arthrobacter 2 (Arthrobacter humicola)
class name: 0 (no)

Problem: Identify whether the reported relative growth of the following molecule is 1 or greater: CCCCOC(=O)[C@H](C)Oc1ccc(Oc2ccc(C#N)cc2F)cc1
Result: 0 (no)

* * *

For each of the molecules below, state its relative growth.
Tested on: Serratia 1 (Serratia sp. 2015-2462-01)
Experiment: relative growth (AUC of 72 h growth curve relative to DMSO control, dAUC) (ratio); higher = more growth (less inhibition), active = hit call of the paper
Details: 20 µM
Give bare numbers.

// worked examples, relative growth included
molecule: COP(=S)(OC)Oc1nc(Cl)c(Cl)cc1Cl
attribute measured: relative growth
value measured: 0.998
--
molecule: CNC(=O)Oc1cccc2ccccc12
attribute measured: relative growth
value measured: 0.932
--
molecule: CCOc1cc(Oc2ccc(C(F)(F)F)cc2Cl)ccc1[N+](=O)[O-]
attribute measured: relative growth
value measured: 0.952

Could you report relative growth for every entry in the following list?
1. CCCCCCCCCCCCNC(=N)N
2. COC(=O)N(OC)c1ccccc1COc1ccn(-c2ccc(Cl)cc2)n1
3. CC1(C)C(C=C(Cl)Cl)C1C(=O)OCc1cccc(Oc2ccccc2)c1 (configuration not stated)
4. Cc1cc(C(C#N)c2ccc(Cl)cc2)c(Cl)cc1NC(=O)c1cc(I)cc(I)c1O (configuration not stated)
5. CCCSP(=O)(OCC)Oc1ccc(Br)cc1Cl (configuration not stated)
6. CS(=O)(=O)c1ccc(C(=O)C2C(=O)CCCC2=O)c([N+](=O)[O-])c1
7. COCc1cnc(C2=NC(C)(C(C)C)C(=O)N2)c(C(=O)O)c1 (configuration not stated)
8. CN/C(=N\[N+](=O)[O-])NCc1cnc(Cl)s1

Result:
1: 0.00141; 2: 0.984; 3: 0.964; 4: 0.825; 5: 0.955; 6: 1; 7: 1.03; 8: 0.931

Problem: For COc1cc(C)c(C(=O)c2c(OC)ccc(Br)c2C)c(OC)c1OC , write its relative growth.
Result: 1.02

* * *

Tested on: Arthrobacter 2 (Arthrobacter humicola)
Assay: relative growth (AUC of 72 h growth curve relative to DMSO control, dAUC) (ratio); higher = more growth (less inhibition), active = hit call of the paper
Conditions: 20 µM
Would you kindly list relative growth for each of these compounds?
Give bare numbers.

Worked cases, answers included:
compound: CC(C)N1C(=O)c2ccccc2NS1(=O)=O
target entity: Arthrobacter 2 (Arthrobacter humicola)
attribute measured: relative growth
value measured: 1.05

compound: CN/C(=N/CC1CCOC1)N[N+](=O)[O-] (configuration not stated)
target entity: Arthrobacter 2 (Arthrobacter humicola)
attribute measured: relative growth
value measured: 1.03

compound: Cc1cc(C)nc(Nc2ccccc2)n1
target entity: Arthrobacter 2 (Arthrobacter humicola)
attribute measured: relative growth
value measured: 0.929

compound: Nc1c([N+](=O)[O-])ccc(Oc2ccccc2)c1Cl
target entity: Arthrobacter 2 (Arthrobacter humicola)
attribute measured: relative growth
value measured: 0.826

Provide each entry's relative growth from the list below.
1. C/C(=N\C#N)N(C)Cc1ccc(Cl)nc1
2. CC1(C)C(C=C(Cl)Cl)C1C(=O)OC(C#N)c1cccc(Oc2ccccc2)c1 (configuration not stated)
3. O=C1C=C(N(Cc2ccc(Cl)nc2)CC(F)F)CO1
4. Cc1nnc(-c2ccccc2)c(=O)n1N

Result:
1. 0.972
2. 0.971
3. 1.08
4. 0.946
